# system: sphingosine-1-phosphate receptor 1 (S1PR1) (Homo sapiens, UniProt P21453)
# Sequence (P21453 whole entry, species assumed): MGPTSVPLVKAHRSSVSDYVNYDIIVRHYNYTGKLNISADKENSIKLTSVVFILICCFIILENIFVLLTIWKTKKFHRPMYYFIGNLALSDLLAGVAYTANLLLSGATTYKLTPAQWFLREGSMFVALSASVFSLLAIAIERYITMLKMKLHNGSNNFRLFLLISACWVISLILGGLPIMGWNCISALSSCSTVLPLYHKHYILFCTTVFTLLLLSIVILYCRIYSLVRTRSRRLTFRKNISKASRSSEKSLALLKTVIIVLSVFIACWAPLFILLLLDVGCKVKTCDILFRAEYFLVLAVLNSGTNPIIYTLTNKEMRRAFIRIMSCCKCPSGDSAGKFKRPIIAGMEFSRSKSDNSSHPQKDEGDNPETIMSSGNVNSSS
# procedureText: Radioligand binding to sphingosine-1-phosphate receptor 1
# conditionsUsed: test compound 100 nM, 0.2 nM radioligand; read-out: % INHIBITION of binding to the SIP1 Receptor
assayReadout: inhibition at 0.1 µM (%)

[[record]]
compound = "O=C1N(Cc2ccc(F)cc2)c2ccccc2C12NCCc1cccc(O)c12 (stereo not drawn) [Compound 1d]"
relationaloperator = "≥"
measvalue = 50

[[record]]
compound = "COc1cc2c(cc1OC)C1(NCC2)C(=O)Nc2ccc(Cl)cc21 (stereo not drawn) [Compound 5b]"
relationaloperator = "≥"
measvalue = 50

[[record]]
compound = "COc1cc2c(c(OC)c1OC)C1(NCC2)C(=O)N(Cc2ccc(F)cc2)c2ccccc21 (stereo not drawn) [Compound 6d]"
relationaloperator = "≥"
measvalue = 50

[[record]]
compound = "COc1cc2c(c(OC)c1OC)C1(NCC2)C(=O)Nc2c(Br)cc(Br)cc21 (stereo not drawn) [Compound 6c]"
relationaloperator = "="
measvalue = 36.7

[[record]]
compound = "COc1cc2c(cc1OC)C1(NCC2)C(=O)Nc2c(Br)cc(Br)cc21 (stereo not drawn) [Compound 5c]"
relationaloperator = "="
measvalue = 37.6

[[record]]
compound = "Cc1ccc(CN2C(=O)C3(NCCc4cccc(O)c43)c3ccccc32)cc1 (stereo not drawn) [Compound 1h]"
relationaloperator = "≥"
measvalue = 50

[[record]]
compound = "COc1ccc2c(c1)CCNC21C(=O)Nc2ccccc21 (stereo not drawn) [Compound 4a]"
relationaloperator = "="
measvalue = 36.2

[[record]]
compound = "COc1ccc2c(c1)CCNC21C(=O)Nc2c(Br)cc(Br)cc21 (stereo not drawn) [Compound 4c]"
relationaloperator = "="
measvalue = 36.3

[[record]]
compound = "COc1ccc2c(c1)CCNC21C(=O)N(Cc2ccc(C)cc2)c2ccccc21 (stereo not drawn) [Compound 4e]"
relationaloperator = "="
measvalue = 38.1

